Organism: Cavia porcellus
procedure_summary: Evaluated for inhibition of the formation and release of SRS-A in isolated guinea pig ileum
Format: functional
Field: label. Allowed values: rule met (IC50 < 4 µM) or rule not met (IC50 >= 4 µM).

Use these answered entries as a reference point.
- molecule: "Cc1c(C)c2c(c(C)c1O)SC(CCCO)O2 (stereo not given)"
  label_class: "rule met"
- molecule: "Cc1c(C)c2c(c(C)c1O)SC(CCC(N)=O)O2 (stereo not given)"
  label_class: "rule met"
- molecule: "CCCC1Oc2c(C)c(C)c(O)c(C)c2S1 (stereo not given)"
  label_class: "rule met"
- molecule: "NC1=NN(c2cccc(C(F)(F)F)c2)CC1 [BW-755C]"
  label_class: "rule not met"
- molecule: "Cc1c(C)c2c(c(C)c1O)SC(CCC(=O)O)O2 (stereo not given)"
  label_class: "rule not met"
- molecule: "CCC1Oc2c(C)c(C)c(O)c(C)c2S1 (stereo not given)"
  label_class: "rule not met"
- molecule: "CCCCCCCC1Oc2c(C)c(C)c(O)c(C)c2S1 (stereo not given)"
  label_class: "rule not met"
- molecule: "Cc1c(C)c2c(c(C)c1O)SC(C)O2 (stereo not given)"
  label_class: "rule met"

Q. Confirm or reject: IC50 of Cc1c(C)c2c(c(C)c1O)SC(c1ccccc1)O2 (stereo not given) lies strictly below 4 µM
A. rule not met

Q. hey, is IC50 for CC1Oc2cc(C(C)(C)C)c(O)cc2S1 (stereo not given) lower than 4 µM or not?
A. rule not met

Q. # TODO verify IC50 < 4 µM strictly for this molecule: CC(C)(C)c1cc(/C=C2\CCOC2=O)cc(C(C)(C)C)c1O
A. rule not met

----------
Readings of IC50 for the listed compounds
Species: Cavia porcellus
procedure_summary: Evaluated for inhibition of the formation and release of SRS-A in isolated guinea pig ileum
Format: functional
Express the result in µM but write the number alone.

- compound: "Cc1c(C)c2c(c(C)c1O)SCO2"
  value_kind: "IC50"
  val: 2.4

Q. What value of IC50 has been recorded for this entry: CCCCC1Oc2c(C)c(C)c(O)c(C)c2S1 (centres undefined)
A. 11.9
